- System: IFN-α production in human PBMCs
- procedureText: Induction of IFN-α in human PBMCs (ELISA)
- Format: cell-based
- conditionSummary: PBMC, 24 h, serial 4-fold dilutions, class symbols, read-out: PBMC assay IFNa EC50
quantityMeasured: EC50

compound	EC50
CCCN(OCc1ccc(N)cc1)C(=O)C1=Cc2ccc(C(=O)N3CC4(COC4)C3)cc2N=C(N)C1 [Compound 95]	0.05 to 0.5 µM

Any idea what its EC50 is? The compound is CCCN(OCc1ccc(N)cc1)C(=O)C1=Cc2ccc(-c3cncc([S+](C)[O-])c3)cc2N=C(N)C1 (stereo not shown) [Compound 73] ≤ 0.01 µM

Any idea what its EC50 is? The compound is CCCN(OCc1ccc(N)cc1)C(=O)C1=Cc2ccc(-c3cccc(S(=O)(=O)N4CCNCC4)c3)cc2N=C(N)C1 [Compound 67] > 0.5 µM

Any idea what its EC50 is? The compound is CCCN(OCc1ccc(N)cc1)C(=O)C1=Cc2ccc(-c3cccc(S(=O)(=O)NCCO)c3)cc2N=C(N)C1 [Compound 64] 0.01 to 0.05 µM

Any idea what its EC50 is? The compound is CCCN(OCc1ccc(N)cc1)C(=O)C1=Cc2ccc(C(=O)Nc3ccn(C)n3)cc2N=C(N)C1 [Compound 88] 0.05 to 0.5 µM

Any idea what its EC50 is? The compound is CCCN(OCc1ccc(N)cc1)C(=O)C1=Cc2ccc(-c3cncc(S(=O)(=O)NCCO)c3)cc2N=C(N)C1 [Compound 70] 0.01 to 0.05 µM

Any idea what its EC50 is? The compound is CCCN(OCc1ccc(N)cc1)C(=O)C1=Cc2ccc(C(=O)N3CC(Oc4ccccc4)C3)cc2N=C(N)C1 [Compound 94] 0.05 to 0.5 µM

---

- assayedSystem: hTLR7 (human Toll-like receptor 7) (Homo sapiens)
- Construct: host or cells: HEK-Blue hTLR7 (HEK293-derived reporter cells)
- Sequence (Q9NYK1 27-1049): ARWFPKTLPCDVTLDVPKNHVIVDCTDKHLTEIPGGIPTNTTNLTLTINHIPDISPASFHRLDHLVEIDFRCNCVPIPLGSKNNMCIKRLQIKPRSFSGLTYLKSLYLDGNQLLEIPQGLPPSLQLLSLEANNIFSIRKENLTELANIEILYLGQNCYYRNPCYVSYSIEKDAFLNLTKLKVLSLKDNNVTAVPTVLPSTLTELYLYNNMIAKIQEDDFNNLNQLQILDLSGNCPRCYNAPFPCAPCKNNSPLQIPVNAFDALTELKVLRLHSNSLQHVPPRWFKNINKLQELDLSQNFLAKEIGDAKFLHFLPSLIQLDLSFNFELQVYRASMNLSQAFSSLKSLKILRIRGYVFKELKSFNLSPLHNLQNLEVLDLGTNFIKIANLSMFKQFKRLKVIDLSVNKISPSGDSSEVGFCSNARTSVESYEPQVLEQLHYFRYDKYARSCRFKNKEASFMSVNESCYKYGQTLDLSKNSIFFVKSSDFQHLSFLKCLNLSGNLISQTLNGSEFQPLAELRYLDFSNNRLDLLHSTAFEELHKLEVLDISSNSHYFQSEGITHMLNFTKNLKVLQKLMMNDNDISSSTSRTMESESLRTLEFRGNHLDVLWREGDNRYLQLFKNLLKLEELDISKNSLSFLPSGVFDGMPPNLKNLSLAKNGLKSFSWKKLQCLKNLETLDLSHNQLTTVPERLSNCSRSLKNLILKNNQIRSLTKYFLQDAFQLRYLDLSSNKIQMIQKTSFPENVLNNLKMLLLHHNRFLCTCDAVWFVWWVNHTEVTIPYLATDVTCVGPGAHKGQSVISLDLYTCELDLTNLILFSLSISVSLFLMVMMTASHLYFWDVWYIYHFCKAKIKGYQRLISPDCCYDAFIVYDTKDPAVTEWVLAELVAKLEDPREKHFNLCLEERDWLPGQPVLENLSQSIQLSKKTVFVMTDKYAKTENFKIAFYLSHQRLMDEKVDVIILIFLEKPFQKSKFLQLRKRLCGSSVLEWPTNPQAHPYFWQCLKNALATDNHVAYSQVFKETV
- procedureText: HEK-Blue hTLR7 reporter assay (QUANTI-Blue, OD650)
- Assay type: cell-based
- conditionSummary: HEK-Blue hTLR7 cells, 24 h; class symbols; read-out: Reporter assay TLR7 EC50
quantityMeasured: EC50

These solved cases illustrate the format of a correct answer.
molecule	assayedSystem	EC50
CCCN(OCc1ccc(N)cc1)C(=O)C1=Cc2ccc(C(=O)NC3CCCCC3)cc2N=C(N)C1 [Compound 82]	hTLR7 (human Toll-like receptor 7) (Homo sapiens)	> 1000 nM
CCCN(OCc1ccc(N)cc1)C(=O)C1=Cc2ccc(C(=O)N3CCOC(CO)C3)cc2N=C(N)C1 (centres unmarked) [Compound 47]	hTLR7 (human Toll-like receptor 7) (Homo sapiens)	> 1000 nM

Any idea what its EC50 is? The molecule is CCCN(OCc1ccc(N)cc1)C(=O)C1=Cc2ccc(C(=O)N3CCN(C)CC3)cc2N=C(N)C1 [Compound 93] > 1000 nM

Any idea what its EC50 is? The molecule is CCCN(OCc1ccc(N)cc1Cl)C(=O)C1=Cc2ncc(-c3cncc(CO)c3)cc2N=C(N)C1 [Compound 59] 100 to 1000 nM

Any idea what its EC50 is? The molecule is CCCN(OCc1ccc(N)cc1OC)C(=O)C1=Cc2ncc(-c3cncc(CO)c3)cc2N=C(N)C1 [Compound 60] 100 to 1000 nM

Any idea what its EC50 is? The molecule is CCCN(OCc1ccc(N)cc1)C(=O)C1=Cc2ccc(C(=O)Nc3ccn(C)n3)cc2N=C(N)C1 [Compound 88] > 1000 nM

Any idea what its EC50 is? The molecule is CCCN(OCc1ccc(N)cc1)C(=O)C1=Cc2ccc(C(=O)Nc3cncc(OC)c3)cc2N=C(N)C1 [Compound 85] > 1000 nM

Any idea what its EC50 is? The molecule is CCCN(OCc1ccc(N)cc1)C(=O)C1=Cc2ccc(C(=O)N[C@H]3C[C@@H]3c3ccccc3)cc2N=C(N)C1 [Compound 78] 100 to 1000 nM

Any idea what its EC50 is? The molecule is CCCN(OCc1ccc(N)cc1)C(=O)C1=Cc2ccc(C(=O)N[C@@H](C)c3ccccc3)cc2N=C(N)C1 [Compound 77] 100 to 1000 nM

Any idea what its EC50 is? The molecule is CCCN(OCc1ccc(N)cc1)C(=O)C1=Cc2ccc(-c3cncc(CO)c3)nc2N=C(N)C1 [Compound 62] 100 to 1000 nM

Any idea what its EC50 is? The molecule is CCCN(OCc1ccc(N)cc1)C(=O)C1=Cc2ccc(-c3cncc(S(=O)(=O)N4CC[C@H](O)C4)c3)cc2N=C(N)C1 [Compound 72] 100 to 1000 nM

Any idea what its EC50 is? The molecule is CCCN(OCc1ccc(N)cc1)C(=O)C1=Cc2ccc(-c3cnc4c(c3)C(=O)OC4)nc2N=C(N)C1 [Compound 63] 100 to 1000 nM

Any idea what its EC50 is? The molecule is CCCN(OCc1ccc(N)cc1)C(=O)C1=Cc2ccc(C(=O)NCCO)cc2N=C(N)C1 [Compound 48] > 1000 nM

Any idea what its EC50 is? The molecule is CCCN(OCc1ccc(N)cc1)C(=O)C1=Cc2ccc(C(=O)N3CC(CO)C3)cc2N=C(N)C1 [Compound 37] > 1000 nM

Any idea what its EC50 is? The molecule is CCCN(OCc1ccc(N)cc1)C(=O)C1=Cc2ccc(C(=O)NC(C)(C)c3ccccc3)cc2N=C(N)C1 [Compound 76] 100 to 1000 nM

Any idea what its EC50 is? The molecule is CCCN(OCc1ccc(N)cc1)C(=O)C1=Cc2ccc(-c3cccc(S(=O)(=O)N4CCC(O)CC4)c3)cc2N=C(N)C1 [Compound 66] 100 to 1000 nM

Any idea what its EC50 is? The molecule is CCCN(OCc1ccc(N)cc1)C(=O)C1=Cc2ccc(C(=O)N3CC[C@H](O)C3)cc2N=C(N)C1 [Compound 46B] > 1000 nM
